target-system: Recombinant human PDK1 enzyme (aa 52-556) (Homo sapiens (Human), UniProt O15530)
Sequence (O15530 52-556): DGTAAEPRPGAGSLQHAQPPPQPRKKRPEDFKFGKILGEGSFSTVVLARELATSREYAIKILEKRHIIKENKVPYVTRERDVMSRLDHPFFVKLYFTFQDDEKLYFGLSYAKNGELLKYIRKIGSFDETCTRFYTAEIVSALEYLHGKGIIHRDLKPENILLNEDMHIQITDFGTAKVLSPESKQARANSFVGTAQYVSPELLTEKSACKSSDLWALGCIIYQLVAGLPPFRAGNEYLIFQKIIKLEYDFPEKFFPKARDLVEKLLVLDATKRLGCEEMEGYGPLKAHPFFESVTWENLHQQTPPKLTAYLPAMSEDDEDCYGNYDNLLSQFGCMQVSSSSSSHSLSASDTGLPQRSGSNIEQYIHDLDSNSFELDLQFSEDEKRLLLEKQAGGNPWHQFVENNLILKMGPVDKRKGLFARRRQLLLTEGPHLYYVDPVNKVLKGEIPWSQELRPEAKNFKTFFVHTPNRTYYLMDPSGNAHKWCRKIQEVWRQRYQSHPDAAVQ
run-description: PDK1 kinase assay
condition-parameters: 25 μM ATP solution with gamma-P33-ATP, PDKtide substrate, 90 min at RT
reported-metric: IC50 (nM)

smiles-notation: Cc1nc2cnc3ccc(C#CCNC(=O)c4cccn([C@@H](CO)c5cccc(F)c5)c4=O)cc3c2n1[C@H]1CC[C@@H](N(C)C)CC1
IC50 / nM: 4

smiles-notation: CC(C)n1cnc2cnc3ccc(C#CCNC(=O)c4cncn(Cc5ccc(F)c(F)c5)c4=O)cc3c21
IC50 / nM: 2

smiles-notation: O=C(NCC#Cc1ccc2ncc3ncn([C@H]4CCNC4)c3c2c1)c1cncn(Cc2ccc(F)c(F)c2)c1=O
IC50 / nM: 28

smiles-notation: CN1CCC(n2cnc3cnc4ccc(C#CCNC(=O)c5cncn(Cc6ccc(F)c(F)c6)c5=O)cc4c32)CC1
IC50 / nM: 2

smiles-notation: CN(C)[C@H]1CC[C@@H](n2cnc3cnc4ccc(C#CCNC(=O)c5cccn([C@@H](CO)c6cccc(F)c6)c5=O)cc4c32)CC1
IC50 / nM: 3

a: O=C(NCC#Cc1ccc2ncc3ncn(CCCO)c3c2c1)c1cncn(Cc2ccc(F)c(F)c2)c1=O
b: CC(C)N1CCC(n2cnc3cnc4ccc(C#CCNC(=O)c5cncn(Cc6ccc(F)c(F)c6)c5=O)cc4c32)CC1
Of the two listed items, a and b , which carries the larger IC50 figure? Answer = label.
b
(b: 11 nM, a: 2 nM)
